The measurements presented in this section are drawn from the Immune Epitope Database (IEDB).

# System tested: HLA-B*07:02
# Test summary: IEDB peptide-MHC binding, purified MHC/direct/fluorescence; filed as Kd, often an IC50 or EC50 that approximates it; bounds were set here for any values at or beyond the usual limits of such assays
# Condition label: source organism: Influenza A virus (A/Viet Nam/HN/2004(H5N1))
Readout name: Kd

Prompt: Fill in the blank: the reported Kd of "FRNQVKIRR" is ____.
Response: ≥ 20 µM

###

# System tested: HLA-A*01:01
# Test summary: IEDB peptide-MHC binding, purified MHC/direct/fluorescence; filed as Kd, often an IC50 or EC50 that approximates it; bounds were set here for any values at or beyond the usual limits of such assays
# Condition label: source organism: Mammarenavirus juninense
Readout name: Kd

Prompt: Fill in the blank: the reported Kd of "FRRVAHSSL" is ____.
Response: ≥ 20 µM

###

# System tested: HLA-A*68:02
# Test summary: IEDB peptide-MHC binding, purified MHC/competitive/radioactivity; filed as Kd, often an IC50 or EC50 that approximates it; bounds were set here for any values at or beyond the usual limits of such assays
# Condition label: source organism: Dengue virus 3 Martinique/1243/1999
Readout name: Kd (nM)
# value in nM; strip the unit string

Prompt: Fill in the blank: the reported Kd of "LAIPPTAGV" is ____.
Response: 3.16

###

# System tested: HLA-B*44:03
# Test summary: IEDB peptide-MHC binding, purified MHC/competitive/radioactivity; filed as Kd, often an IC50 or EC50 that approximates it; bounds were set here for any values at or beyond the usual limits of such assays
# Condition label: source organism: SARS coronavirus Tor2
Sorting guide: entries reporting Kd beneath 400 nM go in the TRUE pile, the rest go in the FALSE pile.

Prompt: Is 400 nM strictly greater than the sequence's reported Kd? sequence: "SEETGTLIV"
Response: FALSE

Prompt: Is 400 nM strictly greater than the sequence's reported Kd? sequence: "LEWLAEVVKL"
Response: FALSE

Prompt: Is 400 nM strictly greater than the sequence's reported Kd? sequence: "KENDSKEGFF"
Response: TRUE

Prompt: Is 400 nM strictly greater than the sequence's reported Kd? sequence: "GEDIQLLKA"
Response: FALSE

Prompt: Is 400 nM strictly greater than the sequence's reported Kd? sequence: "YECLYRNRDV"
Response: FALSE

Prompt: Is 400 nM strictly greater than the sequence's reported Kd? sequence: "SELVIGAVII"
Response: FALSE

Now consider the entry below.
Prompt: Is 400 nM strictly greater than the sequence's reported Kd? sequence: "KEGFFTYLCG"
Response: TRUE

###

# System tested: HLA-A*03:01
# Test summary: IEDB peptide-MHC binding, purified MHC/direct/fluorescence; filed as Kd, often an IC50 or EC50 that approximates it; bounds were set here for any values at or beyond the usual limits of such assays
# Condition label: source organism: Mammarenavirus lassaense
pKd: −log10 of the molar value.
Readout name: pKd

Prompt: Fill in the blank: the reported pKd of "SHGIDVTDL" is ____.
Response: ≤ 4.70

###

# System tested: HLA-A*24:02
# Test summary: IEDB peptide-MHC binding, purified MHC/competitive/radioactivity; filed as Kd, often an IC50 or EC50 that approximates it; bounds were set here for any values at or beyond the usual limits of such assays
# Condition label: source organism: Mammarenavirus machupoense
Readout name: Kd

Prompt: Observed Kd on HLA-A*24:02 for "RCWLIRNGSY" , please.
Response: ≥ 70.3 µM
